Target: T1, monkey GFRα3 expressed with a C-terminal myc-myc-hexahistidine tag (monkey (Mf), UniProt O60609 32-374 (human entry), limits assumed)
T1 construct: also called MfGFRα3-mmh; MfGFRα3-mmH
T1 chain: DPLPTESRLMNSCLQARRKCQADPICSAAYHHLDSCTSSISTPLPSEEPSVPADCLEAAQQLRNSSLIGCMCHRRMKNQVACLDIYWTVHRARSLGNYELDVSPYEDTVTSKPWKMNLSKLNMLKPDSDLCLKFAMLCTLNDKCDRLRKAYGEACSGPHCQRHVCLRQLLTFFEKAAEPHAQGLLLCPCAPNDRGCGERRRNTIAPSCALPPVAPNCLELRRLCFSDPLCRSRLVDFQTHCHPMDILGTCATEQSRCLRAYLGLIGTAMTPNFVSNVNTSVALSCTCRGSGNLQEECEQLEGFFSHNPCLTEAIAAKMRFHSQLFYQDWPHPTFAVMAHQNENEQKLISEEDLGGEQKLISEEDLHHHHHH
Experiment: SPR, Ab captured, 37C
Label YES when kon is strictly below 90000 M⁻¹ s⁻¹; at or above that, label NO.

>>> cat("H4H2294S (antibody, human IgG4, V domains shown, human IgG4 Fc (H4H)) VH: EVQLVESGGGLVQPGGSLRLSCAASGFTFSSYAMSWVRQAPGKGLEWVSVISGSGGSTYYADAVKGRFTISRDNSKHTLYLQMNSLRAEDTAVYYCTKPSSYSSSNFYYGMDVWGQGSTVTVSS VL: DIQLTQSPSSVSASVGDRVTITCRASQGISSWLAWYQQKPGKAPKLLIYAASSLQSGVPSRFSGSGSGTDFTLTISSLQPEDFATYYCQQTNSFPFPFGPGTKVDIK")
"NO"
>>> cat("H4H2354S (antibody, human IgG4, V domains shown, human IgG4 Fc (H4H); also called H4H2354S-1) VH: QVQLVESGGGVVQPGRSLRLSCAASGFSFSDYVMHWVRQAPGKGLEWVASIWFDGSNEFYADSVKGRFTISRDNSKNTLFLQMNSLRAEDTAVYYCAKKGVLVATSAFDIWGQGTMVTVSS VL: DIQLTQSPSSLSASVGDRVTITCRASQSINNYLNWYHQKPGKAPKLLIYAASSLQSGVPSRFSGSGSGTDYTLTISSLQPEDFGNYYCQQSYRTSMYTFGQGTKVEIK")
"NO"
>>> cat("H4H2350P (antibody, human IgG4, V domains shown, human IgG4 Fc (H4H)) VH: QVQLQESGPGLVKPSETLSLTCTVSGGSISTYYWSWFRQPPGKGLEWIGYIYYSGSTNHNPSLKSRVTISVDTSKNQFSLKLRSVTAADTAVYYCARVGPVGWGSWGNFDYWGQGTLVTVSS VL: DIQLTQSPSFLSASVGDRVTITCWASQGISSYLAWSQQKPGKAPKLLIYAASTLQSGVPSRFSGSGSGTEFTLTISSLQPEDFATYYCQQLNSYPWTFGQGTKVEIK")
"YES"

Consider the additional binder presented here.
Task: Strictly below 90000 M⁻¹ s⁻¹ in kon? H1M2243N (antibody, V domains shown, chimeric, human variable and mouse constant domains (H1M)) VH: QVQLVQSGAEVKKPGASVKVSCKASGYTFTSYGIIWVRQAPGQGLEWMGWISGYNGNTNYTQNLQGRVTMTTDTSTTTAYMELRSLRSDDTAVYYCARWGIATRPYYYYGMDVWGQGTTVTVSS VL: DIQMTQSPSSLSASVGDRVTITCRASQDITNYLAWFQQKPGKAPKSLIYAASSLQSGVPSKFSGSGSGTDFTLTISSLQPEDFATYYCQQYNSYPPTFGPGTKVDIK
Result: YES
